# Lookup of reported inhibition keyed by entry
Target under test: RAC-alpha serine/threonine-protein kinase (Homo sapiens) (UniProt P31749)
Sequence (P31749 whole entry): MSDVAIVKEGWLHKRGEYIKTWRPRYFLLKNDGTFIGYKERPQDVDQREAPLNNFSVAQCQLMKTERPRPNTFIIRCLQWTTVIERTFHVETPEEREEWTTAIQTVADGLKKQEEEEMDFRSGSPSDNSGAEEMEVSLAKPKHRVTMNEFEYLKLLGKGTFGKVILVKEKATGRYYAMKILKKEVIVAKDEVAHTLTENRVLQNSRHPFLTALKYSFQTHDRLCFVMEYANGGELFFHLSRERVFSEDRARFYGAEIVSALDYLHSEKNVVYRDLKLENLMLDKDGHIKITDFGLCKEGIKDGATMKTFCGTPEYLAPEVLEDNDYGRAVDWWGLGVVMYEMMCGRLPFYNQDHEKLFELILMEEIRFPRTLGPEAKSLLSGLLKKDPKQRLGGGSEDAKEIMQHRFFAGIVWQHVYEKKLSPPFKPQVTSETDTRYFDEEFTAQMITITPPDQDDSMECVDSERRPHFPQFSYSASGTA
Condition context: at 1 µM
Description: GSK_PKIS: AKT1 mean inhibition at 1 uM [Nanosyn]
Answer with a number only, understood to be in %.

See these solved cases before continuing.
Molecule smiles | Observed property | Output unit | Number
O=C1Nc2ccc(-c3cccnc3)cc2C1=Cc1cc(Br)c(O)c(Br)c1 | inhibition | % | 2.74
[O-][S+]1CCN(Cc2ccc(-c3ccc4ncnc(Nc5ccc(OCc6ccccc6)c(Cl)c5)c4c3)o2)CC1 | inhibition | % | -0.3

-- ask Which inhibition reading was recorded for the compound CS(=O)(=O)CCNCc1nc(-c2ccc3ncnc(Nc4ccc(OCc5cccc(C(F)(F)F)c5)cc4)c3c2)cs1 ?
-- reply -0.66

----------
Target under test: Serine/threonine-protein kinase MRCK alpha (Homo sapiens) (UniProt Q5VT25);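 note: each inhibition figure is a mean value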
Sequence (Q5VT25 whole entry): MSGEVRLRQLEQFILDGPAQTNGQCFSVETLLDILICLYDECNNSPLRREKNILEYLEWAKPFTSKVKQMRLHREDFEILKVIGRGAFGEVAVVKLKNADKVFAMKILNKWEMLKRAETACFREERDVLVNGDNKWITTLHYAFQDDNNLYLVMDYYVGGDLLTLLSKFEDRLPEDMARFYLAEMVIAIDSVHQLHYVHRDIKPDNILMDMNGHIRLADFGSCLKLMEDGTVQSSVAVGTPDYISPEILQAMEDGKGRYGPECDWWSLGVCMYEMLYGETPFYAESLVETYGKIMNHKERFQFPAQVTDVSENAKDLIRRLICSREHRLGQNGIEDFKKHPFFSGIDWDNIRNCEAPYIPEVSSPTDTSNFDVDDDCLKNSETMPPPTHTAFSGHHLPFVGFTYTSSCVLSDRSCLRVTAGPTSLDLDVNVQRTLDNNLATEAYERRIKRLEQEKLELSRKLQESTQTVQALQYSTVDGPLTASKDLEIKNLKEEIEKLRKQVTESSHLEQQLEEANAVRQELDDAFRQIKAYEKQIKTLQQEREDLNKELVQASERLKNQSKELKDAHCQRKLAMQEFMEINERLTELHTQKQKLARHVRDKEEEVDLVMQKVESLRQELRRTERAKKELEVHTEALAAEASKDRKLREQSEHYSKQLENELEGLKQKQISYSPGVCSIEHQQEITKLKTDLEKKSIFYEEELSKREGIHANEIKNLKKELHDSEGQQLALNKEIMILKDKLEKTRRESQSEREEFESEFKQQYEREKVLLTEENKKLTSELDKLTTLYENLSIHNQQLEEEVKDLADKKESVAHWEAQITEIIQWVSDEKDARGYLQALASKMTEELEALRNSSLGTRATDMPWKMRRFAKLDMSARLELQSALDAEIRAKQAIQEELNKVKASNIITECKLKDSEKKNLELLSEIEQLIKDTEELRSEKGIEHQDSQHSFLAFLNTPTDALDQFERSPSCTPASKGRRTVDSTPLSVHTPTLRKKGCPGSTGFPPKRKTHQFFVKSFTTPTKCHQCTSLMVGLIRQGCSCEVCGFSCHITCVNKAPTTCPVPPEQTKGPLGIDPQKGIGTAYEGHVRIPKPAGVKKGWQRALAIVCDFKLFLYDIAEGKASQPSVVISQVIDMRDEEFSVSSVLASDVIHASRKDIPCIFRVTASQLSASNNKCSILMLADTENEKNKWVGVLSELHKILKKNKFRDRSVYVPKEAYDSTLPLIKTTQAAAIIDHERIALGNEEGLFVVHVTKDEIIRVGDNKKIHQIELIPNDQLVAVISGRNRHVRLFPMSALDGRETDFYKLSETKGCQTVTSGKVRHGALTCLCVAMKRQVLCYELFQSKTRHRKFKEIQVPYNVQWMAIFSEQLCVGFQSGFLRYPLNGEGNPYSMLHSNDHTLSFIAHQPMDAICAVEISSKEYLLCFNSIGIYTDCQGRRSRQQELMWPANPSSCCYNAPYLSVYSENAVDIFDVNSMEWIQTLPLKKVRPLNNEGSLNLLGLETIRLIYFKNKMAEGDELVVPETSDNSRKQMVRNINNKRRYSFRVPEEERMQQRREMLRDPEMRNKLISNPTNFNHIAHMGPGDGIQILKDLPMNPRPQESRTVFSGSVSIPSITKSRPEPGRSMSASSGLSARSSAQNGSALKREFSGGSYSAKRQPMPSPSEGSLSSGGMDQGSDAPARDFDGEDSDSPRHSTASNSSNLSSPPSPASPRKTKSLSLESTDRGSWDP
Condition context: at 0.1 µM
Observed property: inhibition (%)
Answer with a number only, understood to be in %.

See these solved cases before continuing.
Molecule smiles | Output unit | inhibition
CCn1c(-c2nonc2N)nc2c(C#CC(C)(C)O)nc(OCCNC)cc21 | % | 1.79
Oc1cccc(-c2nc(-c3ccccc3)[nH]c2-c2ccncc2)c1 | % | -0.93
CN1CCN(C(=O)c2ccc(NC(=O)Nc3ccc(N(C)c4ccnc(Nc5ccc(CS(C)(=O)=O)cc5)n4)cc3)cc2)CC1 | % | 5.17
COC(=O)c1ccc2c(c1)C(=Cc1cc(Br)c(O)c(Br)c1)C(=O)N2 | % | 5.51
[O-][S+]1CCN(Cc2ccc(-c3ccc4ncnc(Nc5ccc(OCc6ccccc6)c(Cl)c5)c4c3)o2)CC1 | % | -2.24

-- ask Which inhibition reading was recorded for the compound COC(=O)Nc1nc2cc(Oc3ccc(NC(=O)Nc4cccc(Br)c4)cc3)ccc2[nH]1 ?
-- reply 0.43

-- ask Which inhibition reading was recorded for the compound COc1cc2ncn(-c3cc(OCc4ccccc4S(C)(=O)=O)c(C#N)s3)c2cc1OC ?
-- reply 1.12

----------
# Lookup of reported inhibition keyed by entry
Target under test: Hepatocyte growth factor receptor (Homo sapiens) (UniProt P08581)
Sequence (P08581 whole entry): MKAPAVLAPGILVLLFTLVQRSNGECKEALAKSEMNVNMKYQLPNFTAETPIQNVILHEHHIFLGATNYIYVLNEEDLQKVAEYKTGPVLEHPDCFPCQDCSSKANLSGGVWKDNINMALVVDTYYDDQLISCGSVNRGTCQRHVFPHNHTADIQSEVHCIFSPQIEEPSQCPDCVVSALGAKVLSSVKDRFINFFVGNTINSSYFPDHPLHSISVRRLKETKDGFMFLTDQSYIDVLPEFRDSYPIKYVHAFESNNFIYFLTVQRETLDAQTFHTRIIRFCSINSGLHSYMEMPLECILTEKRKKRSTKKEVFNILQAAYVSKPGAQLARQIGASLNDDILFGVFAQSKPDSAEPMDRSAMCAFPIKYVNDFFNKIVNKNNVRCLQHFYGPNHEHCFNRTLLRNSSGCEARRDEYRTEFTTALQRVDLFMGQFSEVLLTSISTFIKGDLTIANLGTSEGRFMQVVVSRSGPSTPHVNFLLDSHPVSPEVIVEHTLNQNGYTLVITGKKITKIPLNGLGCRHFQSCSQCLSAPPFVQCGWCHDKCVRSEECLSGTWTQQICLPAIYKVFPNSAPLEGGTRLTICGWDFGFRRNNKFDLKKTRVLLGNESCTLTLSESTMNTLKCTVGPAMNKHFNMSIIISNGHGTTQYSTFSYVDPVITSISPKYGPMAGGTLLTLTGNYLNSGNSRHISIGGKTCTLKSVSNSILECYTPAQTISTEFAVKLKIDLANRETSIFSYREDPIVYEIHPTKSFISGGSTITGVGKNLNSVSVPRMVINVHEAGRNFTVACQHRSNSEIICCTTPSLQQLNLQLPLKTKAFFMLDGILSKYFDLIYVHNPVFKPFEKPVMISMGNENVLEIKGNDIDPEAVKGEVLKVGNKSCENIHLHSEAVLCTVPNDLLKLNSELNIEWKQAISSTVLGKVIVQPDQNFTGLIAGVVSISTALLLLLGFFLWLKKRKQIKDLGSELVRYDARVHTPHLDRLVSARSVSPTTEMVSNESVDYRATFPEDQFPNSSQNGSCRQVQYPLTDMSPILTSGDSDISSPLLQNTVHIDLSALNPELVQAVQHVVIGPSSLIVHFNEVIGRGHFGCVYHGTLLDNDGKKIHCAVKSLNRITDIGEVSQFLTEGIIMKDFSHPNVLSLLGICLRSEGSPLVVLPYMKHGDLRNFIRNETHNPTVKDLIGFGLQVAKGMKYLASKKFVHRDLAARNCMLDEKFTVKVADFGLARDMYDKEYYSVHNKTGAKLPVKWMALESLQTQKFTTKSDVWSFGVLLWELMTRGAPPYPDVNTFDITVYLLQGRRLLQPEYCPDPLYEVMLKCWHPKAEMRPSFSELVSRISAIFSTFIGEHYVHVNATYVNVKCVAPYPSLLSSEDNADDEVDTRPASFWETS
Condition context: at 1 µM
Answer with a number only, understood to be in %.

Molecule smiles | Target under test | Observed property | Output unit | Number
NC(=O)c1sc(-n2cnc3ccccc32)cc1OCc1ccccc1Br | Hepatocyte growth factor receptor (Homo sapiens) (UniProt P08581) | inhibition | % | 6.5
CCn1c(-c2nonc2N)nc2c(C#CC(C)(C)O)nc(OCCNC)cc21 | Hepatocyte growth factor receptor (Homo sapiens) (UniProt P08581) | inhibition | % | 0.4
COC(=O)Nc1nc2cc(Oc3ccc(NC(=O)Nc4cccc(Br)c4)cc3)ccc2[nH]1 | Hepatocyte growth factor receptor (Homo sapiens) (UniProt P08581) | inhibition | % | 6.03
O=C(Nc1ccc(Oc2ccc3[nH]c(NC(=O)c4ccco4)nc3c2)cc1)Nc1cc(C(F)(F)F)ccc1F | Hepatocyte growth factor receptor (Homo sapiens) (UniProt P08581) | inhibition | % | 42.9
FC(F)(F)c1ccc(-c2nn3ncccc3c2-c2ccnc(Nc3ccc4c(c3)OCCO4)n2)cc1 | Hepatocyte growth factor receptor (Homo sapiens) (UniProt P08581) | inhibition | % | 12.1

-- ask # get_value(readout= inhibition, system= Hepatocyte growth factor receptor (Homo sapiens) (UniProt P08581)) for O=C1Nc2ccc(-c3cccnc3)cc2C1=Cc1cc(Br)c(O)c(Br)c1
-- reply 5.75

-- ask # get_value(readout= inhibition, system= Hepatocyte growth factor receptor (Homo sapiens) (UniProt P08581)) for CN(C)c1cc2c(Nc3ccc4c(cnn4Cc4ccccc4)c3)ncnc2cn1
-- reply 0.45

-- ask # get_value(readout= inhibition, system= Hepatocyte growth factor receptor (Homo sapiens) (UniProt P08581)) for CS(=O)(=O)Nc1cccc(-c2ccc3c(NC(=O)C4CC4)n[nH]c3c2)c1
-- reply 1.91

-- ask # get_value(readout= inhibition, system= Hepatocyte growth factor receptor (Homo sapiens) (UniProt P08581)) for c1ccc(Nc2ncc(-c3ccccc3)o2)cc1
-- reply 6.02

-- ask # get_value(readout= inhibition, system= Hepatocyte growth factor receptor (Homo sapiens) (UniProt P08581)) for NS(=O)(=O)c1ccc(N/N=C2\C(=O)Nc3ccc(Cl)cc32)cc1
-- reply 7.49

-- ask # get_value(readout= inhibition, system= Hepatocyte growth factor receptor (Homo sapiens) (UniProt P08581)) for COc1ccc(-c2nn3ncccc3c2-c2ccnc(Nc3cccc(C(F)(F)F)c3)n2)cc1;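 note: each value is an averaged inhibition figure for MET, taken as the mean across measurements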
-- reply 12.1

----------
Target under test: Tyrosine-protein kinase JAK3 (Homo sapiens)
Condition context: at 1 µM
Description: GSK_PKIS: JAK3 mean inhibition at 1 uM [Nanosyn]
Observed property: inhibition (%)
Answer with a number only, understood to be in %.

-- ask Which inhibition reading was recorded for the molecule NC(=O)c1sc(-n2cnc3ccccc32)cc1OCc1ccccc1Br ?
-- reply 0.23

-- ask Which inhibition reading was recorded for the molecule Cc1ccc(Nc2ccnc(Nc3cccc(C(N)=O)c3)n2)cc1O ?
-- reply 14

-- ask Which inhibition reading was recorded for the molecule C[C@@H](Oc1cc(-n2cnc3ccc(OC[C@@H](O)CO)cc32)sc1C(N)=O)c1ccccc1Cl ?
-- reply 19.7

-- ask Which inhibition reading was recorded for the molecule NS(=O)(=O)c1cccc(Nc2cc(-c3ccc(F)cc3)n[nH]2)c1 ?
-- reply 1.11

----------
Target under test: Tyrosine-protein kinase Fer (Homo sapiens)
Condition context: at 1 µM
Description: GSK_PKIS: FER mean inhibition at 1 uM [Nanosyn]
Observed property: inhibition
Note to self: number, then unit, no commentary.

See these solved cases before continuing.
Molecule smiles | inhibition
FC(F)(F)c1ccc(-c2nn3ncccc3c2-c2ccnc(Nc3ccc4c(c3)OCCO4)n2)cc1 | 12.1%
CCn1c(-c2nonc2N)nc2ccc(F)cc21 | 7.92%

-- ask Which inhibition reading was recorded for the molecule CCS(=O)(=O)c1ccc(OC)c(Nc2ncc(-c3cccc(OC)c3)o2)c1 ?
-- reply 3.8%

-- ask Which inhibition reading was recorded for the molecule O=C1Nc2ccccc2/C1=C/Nc1ccc2[nH]c(=O)[nH]c2c1 ?
-- reply 12.1%

-- ask Which inhibition reading was recorded for the molecule COC(=O)Nc1nc2cc(Oc3ccc(NC(=O)Nc4cccc(Br)c4)cc3)ccc2[nH]1 ?
-- reply 4.33%

-- ask Which inhibition reading was recorded for the molecule CCOc1nccc2c1nc(-c1nonc1N)n2CC ?
-- reply 6.51%

-- ask Which inhibition reading was recorded for the molecule CC(C)c1ccc(Nc2nccc(-c3cnn4ncccc34)n2)cc1 ?
-- reply 16%

----------
System: Tyrosine-protein kinase ABL1 (Homo sapiens), P00519 [H396P]
Condition context: at 0.1 µM
Observed property: inhibition (%)
Answer with a number only, understood to be in %.

See these solved cases before continuing.
Molecule smiles | Target under test | Observed property | Number
NS(=O)(=O)c1cccc(-c2cc3ccncc3cc2OCc2ccccc2)c1 | Tyrosine-protein kinase ABL1 (Homo sapiens), P00519 [H396P] | inhibition | 4.37
NS(=O)(=O)c1ccc(-c2cc3ccncc3cc2OCc2ccccc2)cc1 | Tyrosine-protein kinase ABL1 (Homo sapiens), P00519 [H396P] | inhibition | 4.66
COc1ccc2ncnc(Nc3ccc(OCc4ccccc4)cc3)c2c1 | Tyrosine-protein kinase ABL1 (Homo sapiens), P00519 [H396P] | inhibition | 1.73
NS(=O)(=O)c1ccc(Nc2cc(-c3cccc(O)c3)n[nH]2)cc1 | Tyrosine-protein kinase ABL1 (Homo sapiens), P00519 [H396P] | inhibition | 5.03

Next, consider the following molecule.
-- ask # get_value(readout= inhibition, system= Tyrosine-protein kinase ABL1 (Homo sapiens), P00519 [H396P]) for ON=C1CCc2cc(-c3nc(C4CCNCC4)[nH]c3-c3ccncc3)ccc21
-- reply 0.53

----------
Target under test: Proto-oncogene tyrosine-protein kinase Src (Homo sapiens) (UniProt P12931);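 note: values are averaged inhibition of Src, tested against the GSK PKIS kinase inhibitor set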
Sequence (P12931 2-536 limits assumed): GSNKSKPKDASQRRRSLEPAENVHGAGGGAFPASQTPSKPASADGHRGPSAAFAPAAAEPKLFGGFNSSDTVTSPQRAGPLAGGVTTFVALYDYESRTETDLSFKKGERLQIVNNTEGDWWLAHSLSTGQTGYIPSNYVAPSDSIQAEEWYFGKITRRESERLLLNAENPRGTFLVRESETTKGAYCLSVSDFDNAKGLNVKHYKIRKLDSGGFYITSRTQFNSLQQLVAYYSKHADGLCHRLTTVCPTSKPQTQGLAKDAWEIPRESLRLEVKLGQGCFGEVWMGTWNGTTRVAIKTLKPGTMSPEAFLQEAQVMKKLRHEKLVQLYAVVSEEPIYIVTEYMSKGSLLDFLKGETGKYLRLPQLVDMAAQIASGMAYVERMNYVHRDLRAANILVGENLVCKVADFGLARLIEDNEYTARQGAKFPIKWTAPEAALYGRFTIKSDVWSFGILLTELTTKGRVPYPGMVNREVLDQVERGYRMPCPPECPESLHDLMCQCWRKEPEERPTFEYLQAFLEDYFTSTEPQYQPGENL
Condition context: at 0.1 µM
Observed property: inhibition (%)
Answer with a number only, understood to be in %.

Molecule smiles | inhibition / %
Nc1ccc(C#Cc2cncnc2Nc2ccc(OCc3cccc(F)c3)c(Cl)c2)cc1 | 5.95
Cc1cc(-c2ccccn2)cc(C)c1/C=C/c1cncc(-c2nn[nH]n2)c1 | 7.7
N#Cc1c(NC(=O)c2ccccc2F)sc2c1CCCC2 | -4.11
CN(c1ccc(NC(=O)Nc2ccc(OC(F)(F)F)cc2)cc1)c1ccnc(Nc2cccc(S(N)(=O)=O)c2)n1 | 41.9
CCn1c(-c2nonc2N)nc2c(C#CC(C)(C)O)nc(OCCNC)cc21 | 8.38
Cc1ccc(NC(=O)CC2CC2)cc1-c1ccc(C(=O)NCC2CC2)cc1 | 4.43
COc1cccc(-n2ncc3c(N/N=C/c4ccc(S(C)(=O)=O)cc4)ncnc32)c1 | 56.5

Next, consider the following compound.
-- ask Which inhibition reading was recorded for the compound [O-][S+]1CCN(Cc2ccc(-c3ccc4ncnc(Nc5ccc(OCc6ccccc6)c(Cl)c5)c4c3)o2)CC1 ?
-- reply 1.76

----------
# Lookup of reported inhibition keyed by entry
Target under test: Insulin receptor-related protein (Homo sapiens);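 note: mean percent inhibition of IRR, reported within the GSK PKIS screening panel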
Condition context: at 0.1 µM
Answer with a number only, understood to be in %.

See these solved cases before continuing.
Molecule smiles | Output unit | Number
COc1cc(Nc2nccc(-c3cnn4ncccc34)n2)cc(OC)c1 | % | 3.56
N#Cc1cccc(Nc2nccc(-c3cnn4ncccc34)n2)c1 | % | 3.98
Cc1ccc2c(-c3ccnc(Nc4ccc5c(c4)OCCO5)n3)c(-c3ccc(C(F)(F)F)cc3)nn2n1 | % | 1.35
NS(=O)(=O)c1cccc(Nc2cc(-c3ccc(F)cc3)n[nH]2)c1 | % | 1.9
CN(C)CCCn1c(-c2nonc2N)nc2cnccc21 | % | 2.59
CN(C)c1cc2c(Nc3ccc4c(cnn4Cc4ccccc4)c3)ncnc2cn1 | % | 1.7

Next, consider the following compound.
-- ask Which inhibition reading was recorded for the compound Cc1cc(-c2ccccn2)cc(C)c1/C=C/c1cncc(-c2nn[nH]n2)c1 ?
-- reply 0.66

Measured values drawn from ChEMBL document CHEMBL1961873 for this set.
